For each record, write down the corresponding self-cleavage.
B1: LINE1-full (parent)
chain: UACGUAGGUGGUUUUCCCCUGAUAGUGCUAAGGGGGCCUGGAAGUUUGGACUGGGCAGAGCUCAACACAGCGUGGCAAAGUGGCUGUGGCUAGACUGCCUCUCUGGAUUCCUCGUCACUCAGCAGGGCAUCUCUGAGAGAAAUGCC

variants of: B1; assay: self-cleavage, relative activity (ratio to wild type); higher = more cleavage; in vitro, sequencing; the parent is a self-cleaving ribozyme
Enter a number only.

Fill blank: measured self-cleavage of the variant A65G G144A is ____. 0.1

Could you do the same for U9C A50U , please? 1.38

Could you do the same for U85A G114A , please? 0.08

Query C17A U115C next 0.71

What do you have for G35U A43G ? 1.93

Same lookup for U9C C120U , please. 1.3

Next entry: C71U U96A 0.04

Ok, now A107G A136G 1.31

What do you get for C133A A136U ? 1.38

Please answer likewise for A22G U46C 1.04

Proceed to A79G G88U 0.05

Note, next up: U14C G36C 1.41

// same read-out, input: U45A A117U 0.76

Subsequent entry: U9C A43U 0.77

Item: U1C U115C 1.19

U45C A57U ? 0.11

Repeat with C18U U102C 1.61

# iterate: A65U A136G 0.2

Entry U81C U91A please 0.56

Follow-up entry: U15A U20C 1.31

Try this variant next: A77G G125U 2.41

Request: A42G G74A 0.8
